// each record: one item and its IC50 for Histone deacetylase 1 (Homo sapiens, UniProt Q13547)
Observable: IC50 (nM)

(A) O=C(NO)c1ccc(CN2CCN(C(=O)c3c[nH]c4cc(OCc5ccccc5)ccc34)CC2)cc1
(B) Cn1cc(C(=O)N2CCN(Cc3ccc(C(=O)NO)cc3)CC2)c2ccccc21
In the pair A and B , the larger recorded IC50 belongs to which? Use the label to indicate which entry you chose. B
(B: 2180 nM, A: 1050 nM)

* * *

Species on record: Homo sapiens
Experiment: Selectivity index, ratio of IC50 for inhibition of HDAC1 (unknown origin) to IC50 for inhibition of HDAC6 (unknown origin)
Observable: Ratio IC50

// solved cases for Ratio IC50 follow
> print(dat)
                                test.smiles  recorded.result
1  O=C(NO)c1ccc(CN2CCN(C(=O)c3c[nH]c4cc(F)ccc34)CC2)cc1               85
2  Cn1cc(C(=O)N2CCN(Cc3ccc(C(=O)NO)cc3)CC2)c2ccccc21               39
3  Cc1cccc2c(C(=O)N3CCN(Cc4ccc(C(=O)NO)cc4)CC3)c[nH]c12              102
4  O=C(NO)c1ccc(CN2CCN(C(=O)c3c[nH]c4cc(OCc5ccccc5)ccc34)CC2)cc1               45

(1) O=C(NO)c1ccc(CN2CCN(C(=O)c3c[nH]c4ccc(Cl)cc34)CC2)cc1
(2) O=C(NO)c1ccc(CN2CCN(C(=O)c3c[nH]c4ccccc34)CC2)cc1
In the pair 1 and 2 , the larger recorded Ratio IC50 belongs to which? The response must carry the label of the picked entry. 2
(2: 87, 1: 55)
